Kindly supply the reported growth values for the records listed here.
System: UACC-257 melanoma
ASSAY_DETAILS: NCI-60 one-dose screen, 48 h (100 = growth as untreated, 0 = no growth, -100 = all killed)
PROTOCOL_CONDITIONS: 10 µM unless noted
The panel holds about 83,000 compounds, 20% with a hit somewhere; the sample as a whole holds those more often.
Give bare numbers, in %.

// below: answered compounds
compound="CCC1(OC(=O)c2ccccc2SSCCOC(=O)CCCCC2SCC3NC(=O)NC32)C(=O)OCc2c1cc1n(c2=O)Cc2cc3ccccc3nc2-1 (stereo not given)" system_name="UACC-257 melanoma" experimental_readout=growth unit_tag=% test_value=12.8
compound=COc1ccc2ccccc2c1/C=C1\SC(=Nc2ccc(O)cc2)NC1=O system_name="UACC-257 melanoma" experimental_readout=growth unit_tag=% test_value=37.8
compound=C=CCn1c(O)c(N=Nc2nc(-c3cc4ccccc4oc3=O)cs2)c2ccccc21 system_name="UACC-257 melanoma" experimental_readout=growth unit_tag=% test_value=101

Hey, quick one: what's growth for each of these?
1. O=C(CSc1nnc(-c2ccc(-c3nc4ccccc4[nH]3)cc2)o1)Nc1ccc(Br)cc1
2. CCCCCCCCCc1ccc(C(=O)Nc2cc(C)ccc2C(=O)OC)cc1

[61.9, 106]

* * *

Test system: HOP-62 NSCLC
ASSAY_DETAILS: NCI-60 one-dose screen, 48 h (100 = growth as untreated, 0 = no growth, -100 = all killed)
PROTOCOL_CONDITIONS: 10 µM
Experimental: Growth inhibition of the HOP-62 human Non-Small Cell Lung tumor cell line is measured as a screen for anti-cancer activity. Cells are grown in 96 well plates and exposed to the test compound for 48 hours. Compounds are tested at a single concentration, which is 10^-5 M for most compounds. The reported endpoint is percent growth (GI% or GIPRCNT), where numbers from 0 - 100% represent growth inhibition, and numbers from -100% - 0 represent cell death. […]
About 83,000 compounds went through this panel and 20% of them were active in at least one assay; those are over-represented in the sample as a whole.
Kindly supply the reported growth values for the records listed here.
Give bare numbers, in %.

// below: answered compounds
structure_as_smiles=CC/C(=C(\c1ccc(O)cc1)c1ccc(OCCN(C)C(=O)COCCNC(=O)Cc2ccc3c(c2)CN([C@@H]2CCC(=O)NC2=O)C3=O)cc1)c1ccccc1 experimental_readout=growth unit_tag=% test_value=16.2
structure_as_smiles=CC/C(=C(/c1ccc(O)cc1)c1ccc(OCCN(C)C(=O)CCOCCNC(=O)Cc2ccc3c(c2)CN([C@@H]2CCC(=O)NC2=O)C3=O)cc1)c1ccccc1 experimental_readout=growth unit_tag=% test_value=52.3
structure_as_smiles=CC/C(=C(/c1ccc(O)cc1)c1ccc(OCCN(C)C(=O)COCCOCCNC(=O)Cc2ccc3c(c2)CN([C@@H]2CCC(=O)NC2=O)C3=O)cc1)c1ccccc1 experimental_readout=growth unit_tag=% test_value=38.8
structure_as_smiles=CC/C(=C(/c1ccc(O)cc1)c1ccc(OCCN(C)C(=O)COCCOCCNC(=O)c2ccc3c(c2)CN([C@@H]2CCC(=O)NC2=O)C3=O)cc1)c1ccccc1 experimental_readout=growth unit_tag=% test_value=81

Now consider a different compound.
# compound CC/C(=C(\c1ccc(O)cc1)c1ccc(OCCN(C)C(=O)CCOCCNC(=O)c2ccc3c(c2)CN([C@@H]2CCC(=O)NC2=O)C3=O)cc1)c1ccccc1 ; its growth = 94.4

* * *

Test system: SNB-19 CNS
ASSAY_DETAILS: NCI-60 one-dose screen, 48 h (100 = growth as untreated, 0 = no growth, -100 = all killed)
PROTOCOL_CONDITIONS: 10 µM unless noted
Protocol: Growth inhibition of the SNB-19 human tumor cell line is measured as a screen for anti-cancer activity. Cells are grown in 96 well plates and exposed to the test compound for 48 hours. Compounds are tested at a single concentration, which is 10^-5 M for most compounds. The reported endpoint is percent growth (GI% or GIPRCNT), where numbers from 0 - 100% represent growth inhibition, and numbers from -100% - 0 represent cell death. For example, a value of 40 represents 60% growth inhibition. […]
About 83,000 compounds went through this panel and 20% of them were active in at least one assay; those are over-represented in the sample as a whole. Calls of active or inactive are those of the source. Rule for the calls: active = growth percent below 10; inactive = the rest.
Kindly supply the reported growth values for the records listed here.

Hey, quick one: what's growth for each of these?
1. COc1ccc2c(c1)C(Sc1ccc(F)cc1)c1c(nc(N)c(C#N)c1N)O2 (centres undefined)
2. Nc1cc2ccccc2c(=O)n1NC(=O)c1ccccc1
3. CC(=O)c1c2c(c3ccc4c5ccccc5ccc4n13)C(=O)c1ccccc1C2=O
4. Cc1ccc(C(=O)Nc2ccc(-n3ccnc3)c(C(F)(F)F)c2)cc1C#Cc1cnc2cccnn12

1. 79.7% (inactive)
2. 93.7% (inactive)
3. 65.4% (inactive)
4. 36.4% (inactive)

Hey, quick one: what's growth for each of these?
1. COc1ccc2c(c1)C(=O)N(C)C2C1c2c(cc3c(c2OC)OCO3)CCN1C (centres undefined)
2. O=C(c1ccc(O)cc1)C1[C@H](c2ccc(Cl)cc2)[C@@H](c2ccccc2)NC12C(=O)Nc1ccc(Br)cc12 (some centres undefined)
3. CCOc1ccccc1[C@H]1C(C(=O)c2ccc(Cl)cc2)C2(N[C@@H]1c1ccccc1)C(=O)Nc1ccc(Br)cc12 (some centres undefined)
4. CN(C)c1nc(NCCNS(=O)(=O)c2ccc(C3=Nc4c(N)nc(N)nc4NC(c4ccc(C(F)(F)F)cc4)C3)cc2)nc(N2CCOCC2)n1 (centres undefined)
5. O=C(N/N=C/c1ccc(Br)o1)c1[nH]c2ccc(Br)cc2c1-c1ccccc1
6. COc1c(B(O)O)cc(F)cc1-c1nc2ccc3[nH]ncc3c2c2c1COCC2

49.1% (inactive)
-2.97% (active)
17.1% (inactive)
49% (inactive)
0.0073% (active)
32.7% (inactive)

Hey, quick one: what's growth for each of these?
1. Cc1[nH]nc2ccc3nc(-c4cn[nH]c4C(F)(F)F)c4c(c3c12)CCCC4
2. CCCSc1nnc(-c2c(C)nc3sccn23)o1
3. C=CC(=O)N1CCN(c2ccc3nc4c(nc3c2C(F)(F)F)C(=O)c2ncccc2C4=O)CC1

1. 3.47% (active)
2. 81.2% (inactive)
3. 32.3% (inactive)

Hey, quick one: what's growth for each of these?
1. CC(C)(C)C(=O)C1CC(C#N)=C2C=Cc3c(ccc4ccccc34)N21 (centres undefined)
2. O=C1/C(=C/c2cccc3c2OCO3)Cc2c(F)cc(Br)cc21
3. CC1CCc2c(sc3nc(SCC(=O)c4cccc(Br)c4)n(-c4ccccc4)c(=O)c23)C1 (centres undefined)
4. COc1nc(N)ncc1-c1ccc2ncnc(N3CCc4cc(F)c(Cl)cc43)c2c1
5. Oc1ccc(Cl)c(Nc2ncnc3c2cnn3CC(Cl)c2ccc(Br)cc2)c1 (centres undefined)

60.1% (inactive)
103% (inactive)
64.8% (inactive)
1.32% (active)
57.4% (inactive)

Hey, quick one: what's growth for each of these?
1. OCCn1cc(-c2nc3ccc4[nH]ncc4c3c3c2CCCC3)cn1
2. COC(=O)c1cc(C(=O)C(C)(C)C)n2c3ccccc3c3ccccc3c12
3. O=C1CCC(N2C(=O)c3cccc(NCCCCCC(=O)N4CCN(c5ccc6nc7c(nc6c5C(F)(F)F)C(=O)c5ncccc5C7=O)CC4)c3C2=O)C(=O)N1 (centres undefined)
4. Cc1ccc(Cl)cc1NC(=O)Nc1nc2ccc([N+](=O)[O-])cc2s1
5. O=C(NNC(=O)c1ccc(OCc2nc3ccc(Cl)cc3[nH]2)cc1)Nc1ccc(Cl)c(Cl)c1
6. CN(C)CCCc1ccc(Nc2cnn(C)c(=O)c2Cl)cc1
7. O=C(OCCOCCO)N(c1cccc(Br)c1)c1nc(SCCN2CCOCC2)nc2c1cnn2CC(Cl)c1ccc(Br)cc1 (centres undefined)
8. CN(C)CCCNC(=S)Nc1ccc(/C=C/c2ccc(Cl)cc2)cc1

["59.3% (inactive)", "109% (inactive)", "-72.3% (active)", "7.85% (active)", "20.2% (inactive)", "103% (inactive)", "-69% (active)", "-35.2% (active)"]

Hey, quick one: what's growth for each of these?
1. Clc1ccc2c(NCCNC34CC5CC(CC(C5)C3)C4)ccnc2c1
2. CNc1nc2ccccc2n2c(-c3ccc(O)c(O)c3)cnc12
3. CN(C(=O)CN1C(=O)/C(=C/c2ccco2)SC1=S)C1CCS(=O)(=O)C1 (centres undefined)
4. Cc1nn(-c2ccccc2)c2nc(C)n(C(=O)N/N=C/c3cccc([N+](=O)[O-])c3)c(=O)c12

["-54.2% (active)", "27.5% (inactive)", "95.7% (inactive)", "94.1% (inactive)"]

Hey, quick one: what's growth for each of these?
1. O=C1Nc2ccc(F)cc2/C1=C/C(=O)c1cc2ccccc2oc1=O
2. Cc1ccc(S(=O)(=O)Nc2ccc(-c3ccc4c(c3)NC(=O)/C4=C\c3ccc[nH]3)cc2)cc1
3. O=C(CSc1nnc(-c2ccc(-c3nc4ccccc4[nH]3)cc2)o1)Nc1ccc(Cl)cc1
4. O=C(Nc1ccc(Br)cc1)Nc1ccc(-c2ccc3c(c2)NC(=O)/C3=C\c2ccc[nH]2)cc1

100% (inactive)
95.1% (inactive)
-37.3% (active)
75.2% (inactive)

Hey, quick one: what's growth for each of these?
1. Nc1nn2c(-c3cc4cc(Br)ccc4oc3=O)ccnc2c1N=Nc1ccc(Br)cc1
2. CCOc1ccccc1NC(=O)N/C(N)=N/c1nc2ccccc2s1
3. CN1C(=O)/C(=C\C(=O)c2cc3ccccc3oc2=O)c2ccccc21
4. COC(=O)c1cc(C(C)=O)n2c3ccccc3c3ccccc3c12
5. COc1ccc(-c2nc3ccccc3n2CC(=O)N=Nc2c(O)[nH]c3ccc(Br)cc23)cc1

["-1.72% (active)", "14.7% (inactive)", "78.9% (inactive)", "42.9% (inactive)", "89.3% (inactive)"]
